Tested on: GEMS receptors with CBPnavi (BclXL–LD3 and Bcl2), STAT3-driven SEAP in HEK293T cells
Assay: GEMS SEAP reporter assay, CBPnavi
Format: cell-based
Conditions: Homo sapiens, HEK-293T; read-out: EC50 of the ON phase
assay.metric: EC50 (µM)

- smiles.input: "CC1(C)CCC(c2ccc(Cl)cc2)=C(CN2CCN(c3ccc(C(=O)NS(=O)(=O)c4ccc(N[C@H](CCN5CCOCC5)CSc5ccccc5)c(S(=O)(=O)C(F)(F)F)c4)cc3)CC2)C1"
  study.target: "GEMS receptors with CBPnavi (BclXL–LD3 and Bcl2), STAT3-driven SEAP in HEK293T cells"
  assay.metric: "EC50"
  units.symbol: "µM"
  experimental.value: 0.065

---

Biological target: GEMS with the dual-drug-controlled (venetoclax, A-1155463) switch (BclXL and Bcl2–LD3) in HEK293T cells (Homo sapiens, UniProt P10415)
Experiment: GEMS SEAP reporter assay, dual-drug-controlled (venetoclax, A-1155463) switch
Details: A-1155463-controlled OFF phase

- smiles.input: "CN(C)CC#Cc1ccc(OCCCc2sc(N3CCc4cccc(C(=O)Nc5nc6ccccc6s5)c4C3)nc2C(=O)O)c(F)c1"
  IC50 / nM: 103

---

Target: GEMS with the dual-drug-controlled (A-1155463, venetoclax) switch (Bcl2 and BclXL–LD3) in HEK293T cells (Homo sapiens, UniProt P10415)
Sequence (Q07817 whole entry): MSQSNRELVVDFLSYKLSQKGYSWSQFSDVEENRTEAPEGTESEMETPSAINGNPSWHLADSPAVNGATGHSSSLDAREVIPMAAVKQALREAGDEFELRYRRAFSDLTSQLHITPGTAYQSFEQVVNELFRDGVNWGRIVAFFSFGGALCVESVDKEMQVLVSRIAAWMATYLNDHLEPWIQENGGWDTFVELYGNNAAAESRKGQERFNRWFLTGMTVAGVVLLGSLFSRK
Sequence (P10415 whole entry): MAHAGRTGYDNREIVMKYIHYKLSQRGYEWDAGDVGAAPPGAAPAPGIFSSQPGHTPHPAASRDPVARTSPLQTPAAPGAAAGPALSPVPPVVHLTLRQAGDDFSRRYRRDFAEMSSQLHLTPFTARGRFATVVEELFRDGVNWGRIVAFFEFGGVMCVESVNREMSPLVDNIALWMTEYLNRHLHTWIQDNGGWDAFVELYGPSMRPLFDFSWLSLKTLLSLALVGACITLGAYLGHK
Experiment: GEMS SEAP reporter assay, dual-drug-controlled (A-1155463, venetoclax) switch
Details: A-1155463 dose response; SEAP; read-out: EC50 of the ON phase
assay.metric: EC50 (nM)

- smiles.input: "CN(C)CC#Cc1ccc(OCCCc2sc(N3CCc4cccc(C(=O)Nc5nc6ccccc6s5)c4C3)nc2C(=O)O)c(F)c1"
  experimental.value: 23

---

Biological target: BclXL–LD3 interaction (Homo sapiens)
Sequence (Q07817 1-209 limits assumed): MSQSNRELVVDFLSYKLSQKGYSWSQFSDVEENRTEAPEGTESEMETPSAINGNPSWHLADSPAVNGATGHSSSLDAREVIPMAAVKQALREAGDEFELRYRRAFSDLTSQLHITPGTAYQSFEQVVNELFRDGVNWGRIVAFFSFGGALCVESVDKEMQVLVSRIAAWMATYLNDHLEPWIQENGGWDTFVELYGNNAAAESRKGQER
Experiment: SPR drug competition assay, BclXL–LD3
Details: prevents BclXL from binding to LD3
pIC50: −log10 of the molar value.

- smiles.input: "CN(C)CC#Cc1ccc(OCCCc2sc(N3CCc4cccc(C(=O)Nc5nc6ccccc6s5)c4C3)nc2C(=O)O)c(F)c1"
  pIC50: 6.97
